- Tested on: 786-0 renal
- assay_name: NCI tumour cell line growth inhibition, 48 h
# Lookup of reported TGI keyed by entry
measured_parameter: TGI

molecule="C=C[C@]1(C)CC(O)C2C(=C)C(=O)OC2[C@H]1C(=C)C=O (some centres undefined)" system_under_test="786-0 renal" value="4.47 µM"
molecule=O=C(NCCCCN(CCCNC(=O)C(F)(F)F)Cc1ccccc1)C(F)(F)F system_under_test="786-0 renal" value="> 100 µM"
molecule=CN(C)CCN(C)CCC(=O)/C=C/c1ccccc1 system_under_test="786-0 renal" value="29.9 µM"
molecule="C#CCC(O)c1ccccc1C(O)CC#C (centres undefined)" system_under_test="786-0 renal" value="> 100 µM"
molecule="CC1OC(OC2C(O)COC(OC3C(C)OC(OC4C(OC(=O)[C@]56CCC(C)(C)C[C@@H]5C5=CCC7[C@@]8(C)C[C@H](O)[C@H](OC9OC(CO)C(O)C(O)C9O)[C@@](C)(CO)[C@@H]8CC[C@@]7(C)[C@]5(C)CC6)OCC(O)C4O)C(O)C3OC3OCC(O)C(O)C3O)C2O)C(O)C(O)C1O (some centres undefined)" system_under_test="786-0 renal" value="29.2 µM"
molecule="OC1CC1Sc1ccccc1 (centres undefined)" system_under_test="786-0 renal" value="42.8 µM"
molecule=COC(=O)c1ccc2cc(O)c(O)cc2c1 system_under_test="786-0 renal" value="> 100 µM"
molecule="COc1ccc(NC(C)=O)cc1N1C(=O)/C(=C\\c2cccc(Oc3ccccc3)c2)S(=O)(=O)C1c1ccccc1 (centres undefined)" system_under_test="786-0 renal" value="> 100 µM"
molecule="Nc1ncnc2c1ncn2C1OC(CSC(F)F)C(O)C1O (centres undefined)" system_under_test="786-0 renal" value="> 100 µM"
molecule="C=CCC(NCc1ccccc1)[C@H](OCc1ccccc1)[C@@H]1COC(C)(C)O1 (some centres undefined)" system_under_test="786-0 renal" value="> 100 µM"
molecule=COc1ccc2c(c1)/C(=C\c1c(-c3ccccc3)nc3n1CCS3)C(=O)N2 system_under_test="786-0 renal" value="28.6 µM"
molecule=Cc1cccc(-n2c(C)nc3ccc(NC(=S)Nc4ccccc4)cc3c2=O)c1 system_under_test="786-0 renal" value="> 100 µM"
molecule="C[C@]12CC[C@H](OC3CCCCO3)CC1=CC[C@@H]1C2CC[C@]2(C)/C(=N/OCCC#N)CCC12 (some centres undefined)" system_under_test="786-0 renal" value="72.2 µM"
molecule=Cc1ccc(N=Nc2c(O)c(C(=O)O)cc3ccccc23)c(S(=O)(=O)O)c1 system_under_test="786-0 renal" value="> 100 µM"
molecule="CC(=O)Oc1cn(-c2ccc(Cl)cc2)nc1C1=NN(C(C)=O)C(c2ccc(F)cc2F)O1 (centres undefined)" system_under_test="786-0 renal" value="70.3 µM"
molecule=C=CCN(c1cc(OCc2ccccc2)c2c(c(C)cn2S(=O)(=O)c2ccc([N+](=O)[O-])cc2)c1[N+](=O)[O-])S(C)(=O)=O system_under_test="786-0 renal" value="> 100 µM"
molecule="COc1ccc(C(=O)N2N=C(c3ccc(Br)cc3)CC2c2cn(-c3ccccc3)nc2-c2ccccc2)cc1 (centres undefined)" system_under_test="786-0 renal" value="> 50 µM"
molecule="CC1=C(C)C2(C#N)C(=O)N3C(=NC(c4ccccc4)NC3c3ccccc3)C2(C#N)C(c2ccccc2)N1 (centres undefined)" system_under_test="786-0 renal" value="> 100 µM"
molecule=C[C@H](Nc1ccc2c(c1)OCCn1cc(N3C(=O)OC[C@H]3C(F)F)nc1-2)C(N)=O system_under_test="786-0 renal" value="> 100 µM"

====

- Test system: OVCAR-4 ovarian
- assay_name: NCI tumour cell line growth inhibition, 48 h; in the data active = GI50 below about 0.43 µM; inactive = the rest
Outcomes: active, inactive

compound=COc1cc(Cl)cc(-c2nn(-c3cccc(NC(=O)c4cccc(C(F)(F)F)c4)c3)cc2-c2ccncc2)c1 system_under_test="OVCAR-4 ovarian" label_class=inactive
compound=Cc1ccc(Cl)cc1Nc1nc(C(F)(F)F)ccc1C(N)=O system_under_test="OVCAR-4 ovarian" label_class=inactive
compound="Cc1ccc(C2CC(c3cccc(Nc4ccncc4)c3)=NN2c2cc(Cl)cc(Cl)c2)cc1 (stereo not given)" system_under_test="OVCAR-4 ovarian" label_class=inactive
compound=C[C@H](Nc1ccc2c(c1)OCCn1cc(N3C(=O)OC[C@H]3C(F)F)nc1-2)C(N)=O system_under_test="OVCAR-4 ovarian" label_class=inactive
compound=Cc1cc(Cl)ccc1Nc1nc(C(F)(F)F)ccc1C(=O)N/N=C/c1cccc(O)c1 system_under_test="OVCAR-4 ovarian" label_class=inactive
compound=COc1cc(O)c2c3c(ccnc13)-c1ccccc1N2 system_under_test="OVCAR-4 ovarian" label_class=inactive
compound=Cc1cc2nc(CS)[nH]c2cc1C system_under_test="OVCAR-4 ovarian" label_class=inactive
compound=COc1ccc2c(c1)c(-c1nonc1-c1cn(C)c3ccccc13)cn2C system_under_test="OVCAR-4 ovarian" label_class=inactive
compound=CCOC(=O)c1cnc2c(C)cc(C)cc2c1NCCCN(C)C system_under_test="OVCAR-4 ovarian" label_class=inactive
compound=CCOC(=O)C(=Cc1ccc(-c2ccccc2)cc1)C(=O)OCC system_under_test="OVCAR-4 ovarian" label_class=inactive
compound=O=C(O)c1ccc2nc(-c3ccc(OCCCCCOc4ccc(-c5nc6ccc(C(=O)O)cc6[nH]5)cc4)cc3)[nH]c2c1 system_under_test="OVCAR-4 ovarian" label_class=inactive
compound=COc1cc(/C=C\c2cc(/C=C\c3ccc(O)c(OC)c3)n(C(=O)COc3ccc(Cl)cc3Cl)n2)ccc1O system_under_test="OVCAR-4 ovarian" label_class=inactive
compound=O=S(=O)(Nc1cccc(Cl)c1)c1ccc(-c2cnc(C3CC3)o2)cc1 system_under_test="OVCAR-4 ovarian" label_class=inactive
compound=c1ccc(-c2n(Cc3ccc4ccccc4n3)cc[n+]2Cc2ccc3ccccc3n2)cc1 system_under_test="OVCAR-4 ovarian" label_class=inactive
compound=COc1ccc(OC)c(N(CCN2C(=O)c3ccccc3C2=O)C(=O)CCl)c1 system_under_test="OVCAR-4 ovarian" label_class=active

====

- Tested on: HS 578T breast
- assay_name: NCI tumour cell line growth inhibition, 48 h
measured_parameter: TGI

compound="CC(=O)O[C@@H]1C(C2CCCCC2)C=[N+]([O-])O[C@@H]1OC1CCCC1(c1ccccc1)c1ccccc1 (stereo not given in full)" system_under_test="HS 578T breast" value="27.8 µM"
compound="O=C1/C(=C\\c2cccc(Oc3ccccc3)c2)S(=O)(=O)C(c2ccccc2)N1c1cc(Cl)ccc1Cl (stereo not given)" system_under_test="HS 578T breast" value="88.1 µM"
compound=Fc1cc(-c2csc3n[nH]c(=S)n23)c(Cl)cc1Cl system_under_test="HS 578T breast" value="92.7 µM"
compound=Cc1cccc(-n2c(C)nc3ccc(NC(=S)Nc4ccccc4)cc3c2=O)c1 system_under_test="HS 578T breast" value="> 100 µM"
compound=CCCC(=O)OCC(COC(=O)CCC)OC(=O)CCC system_under_test="HS 578T breast" value="> 100 µM"

====

- System: KM12 colon
- assay_name: NCI tumour cell line growth inhibition, 48 h
measured_parameter: TGI

molecule="[N-]=[N+]=NCC1OCC(O)C(OCc2ccccc2)C1OCc1ccccc1 (stereo not given)" value="> 100 µM"
molecule=O=C(O)c1ccc2nc(-c3ccc(OCCCCCOc4ccc(-c5nc6ccc(C(=O)O)cc6[nH]5)cc4)cc3)[nH]c2c1 value="> 100 µM"
molecule=Cc1ccc2c(=O)cc(-c3ccc(Cl)cc3)[nH]c2n1 value="> 100 µM"
molecule="CCOC(=O)C(C(C)=O)C1CC=CC1 (stereo not given)" value="> 100 µM"
molecule=CCOc1ccc(/C=C\c2cc(OC)c(OC)c(OC)c2)cc1 value="0.185 µM"
molecule=COc1cc2c[n+](C)c3c4cc(OC)c(OC)cc4c(OCCCCCCCCOc4cc5c6cc(OC)c(OC)cc6c[n+](C)c5c5cc(OC)c(OC)cc45)cc3c2cc1OC value="> 100 µM"
molecule="CCn1cc(C2NC(=O)c3ccccc3N2)c2cccc(C)c21 (stereo not given)" value="22.2 µM"
molecule=CCc1c(-c2ccccc2)[nH]c2ccccc2c1=O value="> 100 µM"
molecule="COc1cc(S(=O)(=O)Nc2ccc(-c3csc(N4C(=O)C(C)SC4c4cccc(Oc5ccccc5)c4)n3)cc2)ccc1Cl (stereo not given)" value="> 100 µM"
molecule=COc1ccccc1C=NC12CC3CC(CC(C3)C1)C2 value="> 100 µM"

====

- Test system: SNB-19 CNS
- assay_name: NCI tumour cell line growth inhibition, 48 h
Where a SMILES comes first, the peptide text is derived from it. Bridges are numbered along the chain shown (N, C = ends). [ ]: non-standard residue; d: D form. The star is where a group is joined. ξ: configuration not given here. Chg = N[CH](C(=O)O)C1CCCCC1; Cbz = O=C(OCc1ccccc1)*; PhAc = O=C(Cc1ccccc1)*; OBn = c1ccc(CO*)cc1; ξP = O=C(O)C1CCCN1
measured_parameter: TGI

compound="CN1C(=O)C(O)CC1c1ccc(C(F)(F)F)cc1 (configuration not stated)" value="> 100 µM"
compound=CC(C)NC(=O)OCc1c(COC(=O)NC(C)C)n(C)c2c1ccc1ccsc12 value="52.2 µM"
compound="CCn1cc(C2NC(=O)c3ccccc3N2)c2cccc(C)c21 (configuration not stated)" value="> 100 µM"
compound=COc1ccc(NC(=O)CC(=O)n2nc(-c3ccccc3)c(N=Nc3ccccc3C(=O)O)c2-c2ccccc2)cc1 value="> 100 µM"
compound=Cn1ccnc1C(=O)/C=C/c1ccc(C(=O)Nc2ccc(F)cc2)cc1 value="6.31 µM"
compound="C=C[C@]1(C)CC(O)C2C(=C)C(=O)OC2[C@H]1C(=C)C=O (some centres not stated)" value="44.1 µM"
compound="O=C(Cc1ccccc1)N[C@@H]1COC(=O)C2CCCN2C(=O)[C@@H]2CCCN2C1=O (some centres not stated) (PhAc-[dS]-Pro-[ξP]; ester 1-C)" value="> 100 µM"
compound=Cc1ccc(N=Nc2c(O)c(C(=O)O)cc3ccccc23)c(S(=O)(=O)O)c1 value="> 100 µM"
compound=Cn1ccnc1CCc1ccc(Cl)cc1Cl value="> 100 µM"
compound="COC(=O)C1CC2c3c(c4ccccc4n3C)CC(C1=O)N2C (configuration not stated)" value="> 100 µM"
compound=Cc1ccc(Oc2ccc(C(=O)c3cccc(C(=O)c4ccc(Oc5ccc(C)cc5)cc4)n3)cc2)cc1 value="> 100 µM"
compound="C=CCC(NCc1ccccc1)[C@H](OCc1ccccc1)[C@@H]1COC(C)(C)O1 (some centres not stated)" value="> 100 µM"
compound="COC(=O)C(NC(=O)C(CC(=O)OCc1ccccc1)NC(=O)OCc1ccccc1)C1CCCCC1 (configuration not stated) (Cbz-Asp(OBn)-[Chg]-OMe; configuration not given here)" value="> 100 µM"
compound="CC1=C(C(=O)OCCc2ccc([N+](=O)[O-])cc2)C(c2cccc([N+](=O)[O-])c2)C(C(=O)OC(C)C)=C(C)N1 (configuration not stated)" value="> 100 µM"
compound=CC(=O)COC(=O)CC(C)=O value="> 100 µM"
compound="CC1OC(OC2C(O)COC(OC3C(C)OC(OC4C(OC(=O)[C@]56CCC(C)(C)C[C@@H]5C5=CCC7[C@@]8(C)C[C@H](O)[C@H](OC9OC(CO)C(O)C(O)C9O)[C@@](C)(CO)[C@@H]8CC[C@@]7(C)[C@]5(C)CC6)OCC(O)C4O)C(O)C3OC3OCC(O)C(O)C3O)C2O)C(O)C(O)C1O (some centres not stated)" value="33.7 µM"
compound=O=S(=O)(O)c1ccc(-c2c3nc(c(-c4ccc(S(=O)(=O)O)cc4)c4ccc([nH]4)c(-c4ccc(S(=O)(=O)O)cc4)c4nc(c(-c5ccc(S(=O)(=O)O)cc5)c5ccc2[nH]5)C=C4)C=C3)cc1 value="> 100 µM"
